Test: Cmax in nude mouse xenografted with human LoVo cell at 50 mg/kg, po, twice daily
Format: ADME, organism-based
Parameters: route oral, dose 50 mg/kg
Conditions: in vivo
REPORTED ENDPOINT: Cmax
Report as: number unit

[ask] What does the data say about its Cmax? Entry: COc1cc2ncnc(Nc3cccc(Cl)c3F)c2cc1OC1CCN(S(C)(=O)=O)CC1
[reply] 23.9 µM

====

Assay: AUC in nude mouse xenografted with human LoVo cell at 50 mg/kg, po
Format: ADME, organism-based
Parameters: dose 50 mg/kg, route oral
Conditions: in vivo
Could you please report measured AUC for the items listed next?
Report as: number unit

- COMPOUND SMILES: "COc1cc2ncnc(Nc3ccc(F)c(Cl)c3)c2cc1OCCCN1CCOCC1"
  AUC: "78.7 µM·h"

[ask] What does the data say about its AUC? Entry: COc1cc2ncnc(Nc3cccc(Cl)c3F)c2cc1OC1CCN(S(C)(=O)=O)CC1
[reply] 225 µM·h
